Recorded Kd values for a group of binders are listed next.
- TESTED_ON: AGO2 (loaded with guide RNA) (Homo sapiens, UniProt Q9UKV8 1-859)
- Sequence (Q9UKV8 whole entry): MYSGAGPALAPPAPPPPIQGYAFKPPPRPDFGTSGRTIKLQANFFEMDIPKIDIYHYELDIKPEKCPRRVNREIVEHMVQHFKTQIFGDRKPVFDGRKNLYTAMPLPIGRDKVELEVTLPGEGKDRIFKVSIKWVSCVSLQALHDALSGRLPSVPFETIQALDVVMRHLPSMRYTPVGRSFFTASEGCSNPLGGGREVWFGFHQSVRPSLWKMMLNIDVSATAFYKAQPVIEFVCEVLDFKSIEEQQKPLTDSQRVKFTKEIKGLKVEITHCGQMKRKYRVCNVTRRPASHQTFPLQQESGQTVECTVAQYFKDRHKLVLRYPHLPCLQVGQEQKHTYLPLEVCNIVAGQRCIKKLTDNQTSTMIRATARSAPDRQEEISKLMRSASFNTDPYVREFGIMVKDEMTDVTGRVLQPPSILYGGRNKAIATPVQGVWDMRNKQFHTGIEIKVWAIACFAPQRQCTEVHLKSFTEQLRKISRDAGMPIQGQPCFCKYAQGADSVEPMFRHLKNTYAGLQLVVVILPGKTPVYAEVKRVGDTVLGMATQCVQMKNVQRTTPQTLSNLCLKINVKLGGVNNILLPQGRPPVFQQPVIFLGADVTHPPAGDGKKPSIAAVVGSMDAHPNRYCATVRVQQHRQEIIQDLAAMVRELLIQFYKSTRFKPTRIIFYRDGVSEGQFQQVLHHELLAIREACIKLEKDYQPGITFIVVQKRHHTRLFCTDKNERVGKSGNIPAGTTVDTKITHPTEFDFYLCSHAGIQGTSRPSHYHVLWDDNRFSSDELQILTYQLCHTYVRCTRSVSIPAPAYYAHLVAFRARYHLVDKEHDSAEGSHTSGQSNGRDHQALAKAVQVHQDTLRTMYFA
- MEASUREMENT_DESCRIPTION: filter binding; range over four guides; 18 mM HEPES pH 7.4, 100 mM K-acetate, 1 mM Mg-acetate, 0.01% IGEPAL, 0.01 mg/mL yeast tRNA, 5 mM DTT, BSA, glycerol, 37 C, 4 h, 1-5 pM target; kinetics with 10
- REPORTED_CONDITIONS: protein: recombinant, tags: 3xFLAG-SUMOEu1 (removed by SENPEuB cleavage), label: 32P target, complementary to g9-19

>  <BINDER>
miR-124 mut / m9_19 (mixed, 5'-phosphate guide) RNA 1: UCUGGCUCGCGGUGAAUGCCAA RNA 2: UUUUUUGCAUUCACCGCUUUUUUUUUUUUUUU

>  <Kd>
~0.205 nM

$$$$

Then this binder:
Task: Kd for miR-124 wt / m9_19 (mixed, 5'-phosphate guide) RNA 1: UAAGGCACGCGGUGAAUGCCAA RNA 2: UUUUUUGCAUUCACCGCUUUUUUUUUUUUUUU ?
Result: ~0.205 nM
